biological target: IKKε (Homo sapiens, UniProt Q14164); construct: His-tag; made in house; host or cells: Sf9 insect cells; test: In-vitro IKKε kinase assay ([γ33]ATP filter-plate); type: biochemical; conditions: text bins; read-out: IC50 for inhibition of the kinase activity of IKKε
Sequence (Q14164 whole entry): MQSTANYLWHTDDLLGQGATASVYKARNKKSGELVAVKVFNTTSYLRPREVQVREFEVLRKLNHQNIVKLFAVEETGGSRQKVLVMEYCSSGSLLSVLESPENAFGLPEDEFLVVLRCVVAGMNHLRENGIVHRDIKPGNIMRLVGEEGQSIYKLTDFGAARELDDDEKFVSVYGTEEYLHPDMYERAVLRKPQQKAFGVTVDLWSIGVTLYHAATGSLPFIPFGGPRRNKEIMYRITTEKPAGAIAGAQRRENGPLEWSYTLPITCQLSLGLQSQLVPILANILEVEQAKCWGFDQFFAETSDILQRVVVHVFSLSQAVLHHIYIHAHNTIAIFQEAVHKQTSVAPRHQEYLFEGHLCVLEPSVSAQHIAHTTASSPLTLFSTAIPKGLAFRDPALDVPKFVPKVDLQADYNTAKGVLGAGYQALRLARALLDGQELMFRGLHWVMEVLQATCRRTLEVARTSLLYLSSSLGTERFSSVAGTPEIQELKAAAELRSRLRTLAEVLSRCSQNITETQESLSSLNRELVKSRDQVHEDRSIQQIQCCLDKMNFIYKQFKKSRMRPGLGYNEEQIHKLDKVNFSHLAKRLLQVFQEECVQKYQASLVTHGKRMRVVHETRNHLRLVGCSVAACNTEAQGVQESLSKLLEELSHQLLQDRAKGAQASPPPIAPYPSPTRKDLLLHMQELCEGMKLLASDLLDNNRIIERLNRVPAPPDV
Parameter Measured: IC50

>>> result("CC(C)(C)Oc1ccc(-c2ccnc(Nc3ccc(N4CCOCC4)cc3)n2)cc1C#N")
"< 5 nM"
>>> result("COc1cc(-c2ccnc(Nc3ccc(N4CCN(CCO)CC4)cc3)n2)cc(C#N)c1OC1CCOCC1")
"< 5 nM"
>>> result("C[C@H](O)C(=O)NCc1ccc(Nc2nccc(-c3ccc(OC4CCOCC4)c(C#N)c3)n2)cc1")
"< 5 nM"
>>> result("N#Cc1cc(-c2ccnc(Nc3ccc(N4CCOCC4)cc3)n2)ccc1OCCN")
"5 to 50 nM"
>>> result("CC(C)C(=O)Nc1ccc(-c2ccnc(Nc3cccc(CC(=O)N4CCN(C(C)C)CC4)c3)n2)cc1C#N")
"5 to 50 nM"

IC50 reading for CC(C)(C)CC(=O)Nc1ccc(-c2ccnc(Nc3ccc(N4CCOCC4)cc3)n2)cc1C#N : 5 to 50 nM

For record CC(C)C(=O)Nc1ccc(-c2ccnc(Nc3ccc(CN4CCOCC4)cc3)n2)cc1C#N the listed IC50 is 5 to 50 nM

For COc1cc(Nc2nccc(-c3ccc(OC4CCOCC4)c(C#N)c3)n2)ccc1C(=O)N(C)C1CCN(C)C1 (stereo not shown) the molecule record lists IC50 as < 5 nM

IC50 recorded for this molecule, COc1ccc(-c2ccnc(Nc3ccc(NC(=O)NCCCO)cc3)n2)cc1C#N , is 50 to 500 nM

So for N#Cc1cc(-c2ccnc(Nc3ccc(N4CCOCC4)cc3)n2)ccc1NC(=O)CN , the logged IC50 turned out to be 5 to 50 nM

Given item CC(=O)N1CC(Oc2ccc(-c3ccnc(Nc4ccc(N5CCOCC5)cc4)n3)cc2C#N)C1 , the value recorded as its IC50 is 50 to 500 nM

The reported IC50 of the molecule COc1ccc(-c2ccnc(Nc3ccc(N4CCC(N5CCN(C)CC5)CC4)c(OC)c3)n2)cc1C#N was 5 to 50 nM

Entry Cc1ccc(Nc2nccc(-c3ccc(OC4CCOCC4)c(C#N)c3)n2)cc1OCCN ; IC50 = < 5 nM

Measured IC50, N#Cc1cc(-c2ccnc(Nc3ccc(CNC(=O)c4cnc(N)s4)cc3)n2)ccc1OC1CCOCC1 : < 5 nM

Form: molecule = N#Cc1cc(-c2ccnc(Nc3ccc(CN4CCN(CCO)CC4)cc3)n2)ccc1O[C@@H]1CCN(C(=O)CO)C1 ; IC50 = < 5 nM

So, COc1cc(Nc2nccc(-c3ccc(OC4CCOCC4)c(C#N)c3)n2)ccc1S(=O)(=O)N1CCCN(C)CC1 ? Its IC50 was < 5 nM

###

Each entry below carries its reported pIC50.
Molecular target: TBK1 (Homo sapiens, UniProt Q9UHD2)
Construct: His-tag; made in house; host or cells: Sf9 insect cells
Sequence (Q9UHD2 1-729): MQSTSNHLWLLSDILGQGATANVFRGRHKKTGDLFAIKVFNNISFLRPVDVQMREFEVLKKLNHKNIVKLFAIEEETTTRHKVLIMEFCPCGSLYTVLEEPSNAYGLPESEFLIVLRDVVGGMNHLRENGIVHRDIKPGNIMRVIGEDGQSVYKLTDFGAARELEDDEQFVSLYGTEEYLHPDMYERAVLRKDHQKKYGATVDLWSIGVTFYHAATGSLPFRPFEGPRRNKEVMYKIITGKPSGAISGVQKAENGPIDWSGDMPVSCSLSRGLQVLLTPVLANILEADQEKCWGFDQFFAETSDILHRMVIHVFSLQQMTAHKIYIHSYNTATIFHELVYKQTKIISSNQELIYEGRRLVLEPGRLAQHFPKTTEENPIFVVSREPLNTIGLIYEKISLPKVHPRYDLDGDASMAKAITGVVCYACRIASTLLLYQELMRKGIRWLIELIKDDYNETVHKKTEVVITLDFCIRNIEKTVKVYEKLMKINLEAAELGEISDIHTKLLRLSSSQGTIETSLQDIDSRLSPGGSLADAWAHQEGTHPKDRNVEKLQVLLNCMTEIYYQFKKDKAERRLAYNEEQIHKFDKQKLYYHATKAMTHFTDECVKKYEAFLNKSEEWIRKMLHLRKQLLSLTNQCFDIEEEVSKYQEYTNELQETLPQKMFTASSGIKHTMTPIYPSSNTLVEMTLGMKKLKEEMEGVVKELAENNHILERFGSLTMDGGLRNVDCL
Test: In-vitro TBK1 kinase assay ([γ33]ATP filter-plate)
Format: biochemical
Details: text bins; read-out: IC50 for inhibition of the kinase activity of TBK1
pIC50: −log10 of the molar value.

>>> result("COc1cc(-c2ccnc(Nc3ccc(N4CCN(CCO)CC4)cc3)n2)cc(C#N)c1OC1CCOCC1 [compound 446]")
"> 8.00"
>>> result("COc1ccc(Nc2nccc(-c3ccc(OC)c(C#N)c3)n2)cc1Cl [compound 327]")
"7.00 to 8.00"
>>> result("COc1ccc(-c2ccnc(Nc3ccc(N4CCNC(=O)C4)c(OC)c3)n2)cc1C#N [compound 370]")
"> 8.00"
>>> result("N#Cc1cc(-c2ccnc(Nc3ccc(N4CCOCC4)cc3)n2)ccc1OC1CCN(C=O)C1 (centres unmarked) [Example 187]")
"> 8.00"
>>> result("COCCNC(=O)c1ccc(Nc2nccc(-c3ccc(NC(=O)C4CC4)c(C#N)c3)n2)cc1 [compound 537]")
"7.00 to 8.00"

# compound N#Cc1cc(-c2ccnc(Nc3ccc(N4CCOCC4)cc3)n2)ccc1OCC1CCOCC1 [Example 158] ; its pIC50 = > 8.00

# compound COc1cc(Nc2nccc(-c3ccc(OC4CCOCC4)c(C#N)c3)n2)ccc1S(=O)(=O)N1CCCN(C)CC1 [compound 392] ; its pIC50 = > 8.00

pIC50 reported for this compound COc1cc(Nc2nccc(-c3ccc(OC4CCN(S(C)(=O)=O)CC4)c(C#N)c3)n2)ccc1N1CCOCC1 [Example 79] : 7.00 to 8.00
